Data provenance is patent US7517998B2.

Molecular target: K103NNY181C mutant reverse transcriptase (Human immunodeficiency virus type 1 group M subtype B, UniProt P04585, K690N/Y768C)
Construct: mutations that occur in the reverse transcriptase segment of the pol gene
Assay: Reverse transcriptase enzymatic assay (PicoGreen), K103N/Y181C mutant RT
Assay type: biochemical, HIV-1
Details: IC50 mut, mutant reverse transcriptase, enzymatic assay of Example 24
Please go through the items and note down their IC50.
Answers are plain numbers, in nM.

Sample answers from the record:
### Prompt Dear colleague, I am looking for the recorded IC50 of the following compound: CC(C)(C)c1ccc(-n2nnnc2SCC(=O)Nc2ccc(-c3ccc(OCCN4CCCC4)cc3)cc2Cl)c(Cl)c1 [Compound 2029]
### Response 19

### Prompt Same question, Cc1ccc(-c2cn[nH]c2OCC(=O)Nc2ccc(-c3ccc(CC(=O)O)cc3)cc2Cl)c(Cl)c1 [Compound 1010] this time
### Response 156

### Prompt Same question, Cc1cc(-c2ccc(NC(=O)CSc3nnnn3-c3ccc(C(C)(C)C)cc3Cl)c(Cl)c2)ccc1OCC(=O)O [Compound 3010] this time
### Response 33

Now take the following compound into account.
### Prompt Dear colleague, I am looking for the recorded IC50 of the following compound: Cc1ccc(-n2nnnc2SCC(=O)Nc2ccc(-c3ccc(OCC(=O)O)cc3)cc2Cl)c(Cl)c1 [Compound 2007]
### Response 22
